Listed here: items and their measured pEC50.
assay: Inhibition of HCV RNA replication in Huh7 cells
Scale explanation: pEC50 corresponds to minus log10 of a concentration expressed in moles per litre.

Examples with their reported pEC50 follow.
CC(C)CCn1c(=O)c(C2=Nc3ccccc3S(=O)(=O)N2)c(O)c2cc(Cl)ccc21: 5.92
Nc1ccc2c(c1)c(O)c(C1=Nc3ccccc3S(=O)(=O)N1)c(=O)n2CCC1CC1: 6.80
CC(C)CCn1c(=O)c(C2=Nc3ccccc3S(=O)(=O)N2)c(O)c2cc(F)ccc21: 6.58
CC(C)CCn1c(=O)c(C2=Nc3ccccc3S(=O)(=O)N2)c(O)c2cc(OCC#N)ccc21: 6.53
CC(C)CCn1c(=O)c(C2=Nc3ccccc3S(=O)(=O)N2)c(O)c2c(F)cccc21: 6.42
CC(C)CCn1c(=O)c(C2=Nc3ccccc3S(=O)(=O)N2)c(O)c2cc(NCC(=O)O)ccc21: 5.60

Request: What measured pEC50 goes with CCCCn1c(=O)c(C2=NS(=O)(=O)c3ccccc3N2)c(O)c2ccccc21 ?
Result: 6.35

Request: So what does the record say about pEC50 for CC(C)CCn1c(=O)c(C2=Nc3ccccc3S(=O)(=O)N2)c(O)c2cc(OCC(N)=O)ccc21 ?
Result: 6.29
